# STUDY_TARGET: HLA-A*23:01
# ASSAY_DETAILS: IEDB peptide-MHC binding, purified MHC/direct/fluorescence; filed as Kd, often an IC50 or EC50 that approximates it; bounds were set here for any values at or beyond the usual limits of such assays
# TEST_SETTINGS: source organism: Vibrio vulnificus CMCP6
pKd: −log10 of the molar value.

[
  {
    "SEQUENCE_CODE": "MFVSNRWFL",
    "pKd": 8.70
  }
]

* * *

# STUDY_TARGET: HLA-A*29:02
# ASSAY_DETAILS: IEDB peptide-MHC binding, purified MHC/direct/fluorescence; filed as Kd, often an IC50 or EC50 that approximates it; bounds were set here for any values at or beyond the usual limits of such assays
# TEST_SETTINGS: source organism: Orthohantavirus negraense

[
  {
    "SEQUENCE_CODE": "SLLFREVWK",
    "Kd": "≥ 20 µM"
  }
]

* * *

# pKd listing for each entry below
# STUDY_TARGET: HLA-A*24:02
# ASSAY_DETAILS: IEDB peptide-MHC binding, purified MHC/competitive/radioactivity; filed as Kd, often an IC50 or EC50 that approximates it; bounds were set here for any values at or beyond the usual limits of such assays
# TEST_SETTINGS: source organism: Mammarenavirus guanaritoense
pKd: −log10 of the molar value.
ASSAY_ENDPOINT: pKd

[
  {
    "SEQUENCE_CODE": "VFQPSTGNYV",
    "STUDY_TARGET": "HLA-A*24:02",
    "NUMERIC_READOUT": 5.82
  },
  {
    "SEQUENCE_CODE": "FFGALKFKI",
    "STUDY_TARGET": "HLA-A*24:02",
    "NUMERIC_READOUT": 5.67
  }
]

* * *

# STUDY_TARGET: HLA-B*15:01
# ASSAY_DETAILS: IEDB peptide-MHC binding, purified MHC/direct/fluorescence; filed as Kd, often an IC50 or EC50 that approximates it; bounds were set here for any values at or beyond the usual limits of such assays
# TEST_SETTINGS: source organism: Bacillus anthracis str. A0488
ASSAY_ENDPOINT: Kd

[
  {
    "SEQUENCE_CODE": "WDAYIPHYV",
    "ASSAY_ENDPOINT": "Kd",
    "RESULT": "≥ 20 µM"
  }
]

* * *

# STUDY_TARGET: HLA-B*51:01
# ASSAY_DETAILS: IEDB peptide-MHC binding, purified MHC/competitive/fluorescence; filed as Kd, often an IC50 or EC50 that approximates it; bounds were set here for any values at or beyond the usual limits of such assays
# TEST_SETTINGS: source organism: Mycobacterium tuberculosis variant bovis BCG str. Pasteur 1173P2
ASSAY_ENDPOINT: Kd

[
  {
    "SEQUENCE_CODE": "KPIPHRTVL",
    "RESULT": "≥ 20 µM"
  }
]

* * *

# STUDY_TARGET: HLA-A*31:01
# ASSAY_DETAILS: IEDB peptide-MHC binding, purified MHC/direct/fluorescence; filed as Kd, often an IC50 or EC50 that approximates it; bounds were set here for any values at or beyond the usual limits of such assays
# TEST_SETTINGS: source organism: Camelpox virus M-96
pKd: −log10 of the molar value.
# pKd listing for each entry below
ASSAY_ENDPOINT: pKd

[
  {
    "SEQUENCE_CODE": "FENDIDEIL",
    "ASSAY_ENDPOINT": "pKd",
    "RESULT": "≤ 4.70"
  },
  {
    "SEQUENCE_CODE": "EYKKFIATF",
    "ASSAY_ENDPOINT": "pKd",
    "RESULT": "≤ 4.70"
  }
]
